Values were extracted from the PolyMetriX glass transition set.

glass transition temperature less than 100 °C is T; glass transition temperature greater than or equal to 100 °C is F.

Q. Please check: glass transition temperature for *C(=O)Nc1ccc(/N=N/c2ccc([N+](=O)[O-])cc2)c(NC(=O)c2ccc3c(c2)C(=O)N(c2c(C)cc(Cc4cc(C)c(N5C(=O)c6ccc(*)cc6C5=O)c(C)c4)cc2C)C3=O)c1 (repeat unit) , strictly under 100 °C or not?
A. F

Q. Please check: glass transition temperature for *CCCCCCCCOc1ccc(C(c2ccc(O*)cc2)(C(F)(F)F)C(F)(F)F)cc1 (repeat unit) , strictly under 100 °C or not?
A. T

Q. Please check: glass transition temperature for *C(=O)Nc1ccc(Oc2ccccc2-c2ccccc2Oc2ccc(NC(=O)c3ccc4c(c3)C(=O)N(c3ccc(Oc5ccc(-c6ccc(Oc7ccc(N8C(=O)c9ccc(*)cc9C8=O)cc7)cc6)cc5)cc3)C4=O)cc2)cc1 (repeat unit) , strictly under 100 °C or not?
A. F

Q. Please check: glass transition temperature for *Oc1ccc(C2(c3ccc(OC(=O)CCCCCCCCCCC(*)=O)cc3)c3ccccc3-c3ccccc32)cc1 (repeat unit) , strictly under 100 °C or not?
A. F

Q. Please check: glass transition temperature for *c1ccc(-c2nc3cc(Oc4ccc(NC(=O)c5cc(C(=O)Nc6ccc(Oc7ccc8nc(-c9ccccc9)c(-c9ccc(N%10C(=O)c%11ccc%12c%13c(ccc(c%11%13)C%10=O)C(=O)N(*)C%12=O)cc9)nc8c7)cc6)cc(N6C(=O)c7ccccc7C6=O)c5)cc4)ccc3nc2-c2ccccc2)cc1 (repeat unit) , strictly under 100 °C or not?
A. F

Q. Please check: glass transition temperature for *C(=O)OCCCCCCOC(=O)c1ccc(NC(=O)c2ccc(N3C(=O)c4ccc(*)cc4C3=O)cc2)cc1 (repeat unit) , strictly under 100 °C or not?
A. F

Q. Please check: glass transition temperature for *CCc1ccc(CCNC(=O)CCCCCCCCCCCCC(=O)N*)cc1 (repeat unit) , strictly under 100 °C or not?
A. T

Q. Please check: glass transition temperature for *c1ccc(N2C(=O)c3ccc(-c4ccc5c(c4)C(=O)N(*)C5=O)cc3C2=O)cc1 (repeat unit) , strictly under 100 °C or not?
A. F

----------
Record form. Attribute: glass transition temperature. Fill in for each entry.
# unit: °C | format: bare number

Q. Entry *Oc1ccc(C(CC)(CC)c2ccc(OC(=O)c3ccc(C(*)=O)cc3)cc2)cc1 (repeat unit) needs its glass transition temperature filled in; supply it.
A. 180.00

Q. Entry *Nc1ccc(NC(=O)c2ccc(NC(=O)CCCCCCCCCCCCC(=O)Nc3ccc(C(*)=O)cc3)cc2)cc1C(=O)OCCCCCCCCCCCCCCCCCC (repeat unit) needs its glass transition temperature filled in; supply it.
A. 191.00

Q. Entry *Oc1ccc(NC(=O)c2ccc(-c3ccc(C(=O)Nc4ccc(Oc5ccc(C(C)(C)c6ccc(*)cc6)cc5)cc4)c(C)c3)cc2C)cc1 (repeat unit) needs its glass transition temperature filled in; supply it.
A. 230.00

Q. Entry */C=C/CC* (repeat unit) needs its glass transition temperature filled in; supply it.
A. -91.00

Q. Entry *CCCCCCCCCCCCNC(=O)c1ccc(C(=O)N*)cc1 (repeat unit) needs its glass transition temperature filled in; supply it.
A. 130.00

Q. Entry *CC(*)(C)C(=O)OC(COc1cccc2ccccc12)COc1cccc2ccccc12 (repeat unit) needs its glass transition temperature filled in; supply it.
A. 80.00

Q. Entry *CCCCOCO* (repeat unit) needs its glass transition temperature filled in; supply it.
A. -84.00

Q. Entry *c1ccc(Oc2ccc(/C=C/c3ccc(Oc4ccc(-c5nnc(*)o5)cc4)cc3)cc2)cc1 (repeat unit) needs its glass transition temperature filled in; supply it.
A. 215.00

Q. Entry *CCOCCOC(=O)C(CCCCCCC)C(=O)O* (repeat unit) needs its glass transition temperature filled in; supply it.
A. -58.00

Q. Entry *c1ccc(Oc2ccc(C(=O)c3cccc(C(=O)c4ccc(Oc5ccc(-c6c7c(c(*)c8ccccc68)C(=O)N(c6ccc(F)cc6)C7=O)cc5)cc4)c3)cc2)cc1 (repeat unit) needs its glass transition temperature filled in; supply it.
A. 243.00

Q. Entry *CCCP(CCCNC(=O)CCCCC(=O)N*)c1ccccc1 (repeat unit) needs its glass transition temperature filled in; supply it.
A. 49.00

Q. Entry *Oc1ccc(C(c2ccc(Oc3ccc(C(=O)c4ccc(C(c5ccc(C(=O)c6ccc(*)cc6)cc5)(C(F)(F)F)C(F)(F)F)cc4)cc3)cc2)(C(F)(F)F)C(F)(F)F)cc1 (repeat unit) needs its glass transition temperature filled in; supply it.
A. 185.00

Q. Entry *OC(=O)C(C)NC(=O)CCCCCC(=O)NC(C)C(=O)OC1COC2C(*)COC12 (repeat unit) needs its glass transition temperature filled in; supply it.
A. 45.00

Q. Entry *Oc1ccc(Oc2ccc(C(=O)c3cccc4cccc(C(=O)c5ccc(*)cc5)c34)cc2)cc1 (repeat unit) needs its glass transition temperature filled in; supply it.
A. 202.00

Q. Entry *C(=O)Nc1ccc(NC(=O)c2ccc3c(c2)C(=O)N(c2ccc(NC(=O)Nc4ccc(N5C(=O)c6ccc(*)cc6C5=O)cc4)cc2)C3=O)cc1 (repeat unit) needs its glass transition temperature filled in; supply it.
A. 216.00

Q. Entry *CCCCCCNC(=O)c1ccc(C(=O)N*)c(Sc2ccccc2)c1 (repeat unit) needs its glass transition temperature filled in; supply it.
A. 121.00

Q. Entry *c1cnc(C2C(c3ccccc3)C(*)C2c2ccccc2)cn1 (repeat unit) needs its glass transition temperature filled in; supply it.
A. 150.00

Q. Entry *C(=O)OCCOCCOCCOC(=O)c1ccc(N2C(=O)c3ccc(*)cc3C2=O)cc1 (repeat unit) needs its glass transition temperature filled in; supply it.
A. 63.00

Q. Entry */C(=C(/*)c1cccc([Si](C)(C)C)c1)c1ccccc1 (repeat unit) needs its glass transition temperature filled in; supply it.
A. 200.00

Q. Entry *Oc1ccc(Oc2ccc(OC(=O)c3ccc(C(c4ccc(C(*)=O)cc4)(C(F)(F)F)C(F)(F)F)cc3)cc2)cc1 (repeat unit) needs its glass transition temperature filled in; supply it.
A. 215.00

Q. Entry *Nc1ccc(-c2c(-c3ccc(-c4ccccc4)cc3)cc(-c3ccc(-c4cc(-c5ccc(-c6ccccc6)cc5)c(-c5ccc(NC(=O)c6ccc(C(*)=O)cc6)cc5)c(-c5ccc(-c6ccccc6)cc5)c4)cc3)cc2-c2ccc(-c3ccccc3)cc2)cc1 (repeat unit) needs its glass transition temperature filled in; supply it.
A. 305.00

Q. Entry *c1ccc(*)c(C(=O)c2ccccc2)c1 (repeat unit) needs its glass transition temperature filled in; supply it.
A. 180.00

Q. Entry *CCc1ccc(*)c(C#N)c1 (repeat unit) needs its glass transition temperature filled in; supply it.
A. 90.00

----------
Record form. Attribute: glass transition temperature. Fill in for each entry.
# unit: °C | format: bare number

Q. Entry *C(=O)c1ccc2c(c1)C(=O)N(c1ccc(Cc3ccccc3N3C(=O)c4ccc(*)cc4C3=O)cc1)C2=O (repeat unit) needs its glass transition temperature filled in; supply it.
A. 290.00

Q. Entry *c1cccc(N2C(=O)c3ccc(Oc4ccc(Sc5ccc(Oc6ccc7c(c6)C(=O)N(*)C7=O)cc5)cc4)cc3C2=O)c1 (repeat unit) needs its glass transition temperature filled in; supply it.
A. 209.00

Q. Entry */C=C/C1CC(*)C(C(=O)OC)C1 (repeat unit) needs its glass transition temperature filled in; supply it.
A. 65.00

Q. Entry *Oc1cccc(C(F)(F)C(F)(F)C(F)(F)c2cccc(OC(*)=O)c2)c1 (repeat unit) needs its glass transition temperature filled in; supply it.
A. 46.00

Q. Entry *CC(CC)(CO)CO* (repeat unit) needs its glass transition temperature filled in; supply it.
A. 331.90

Q. Entry *CCCCCCCCNC(=O)CC(=O)N* (repeat unit) needs its glass transition temperature filled in; supply it.
A. 55.00

Q. Entry *CC(OCCCC)C1C(=O)OC(=O)C1* (repeat unit) needs its glass transition temperature filled in; supply it.
A. 118.00

Q. Entry *C(=O)Nc1ccc(N2C(=O)CC(N3C(=O)c4ccc(*)cc4C3=O)C2=O)cc1 (repeat unit) needs its glass transition temperature filled in; supply it.
A. 120.00

Q. Entry *c1ccc2c(c1)C(=O)N(c1cccc(P(=O)(c3cccc(N4C(=O)c5ccc(C(*)(C(F)(F)F)C(F)(F)F)cc5C4=O)c3)c3cc(C(F)(F)F)cc(C(F)(F)F)c3)c1)C2=O (repeat unit) needs its glass transition temperature filled in; supply it.
A. 247.00

Q. Entry *C(*)F (repeat unit) needs its glass transition temperature filled in; supply it.
A. 102.00

Q. Entry *CCCCCC(=O)Oc1ccc(C2(c3ccc(OC(=O)c4ccc5c(c4)C(=O)N(*)C5=O)cc3)CCCCC2)cc1 (repeat unit) needs its glass transition temperature filled in; supply it.
A. 122.00

Q. Entry *CCCC(=O)O* (repeat unit) needs its glass transition temperature filled in; supply it.
A. 1.50
